experiment: Alamar Blue cytotoxicity assay; format: cell-based; details: human, HeLa Luc705 cells; Alamar Blue cytotoxicity; read-out: TC50
Reported CC50 at 2 h is given for each of the following molecules.
Report the value in µM with no unit label.

{"Compound": "O=C(Nc1nc2ccccc2n1CCN1CCCC1)c1cc2cc(Cl)ccc2o1", "Uom": "µM", "Measured value": 15}
{"Compound": "COc1ccc2oc(C(=O)Nc3nc4ccccc4n3CCN3CCCC3)cc2c1", "Uom": "µM", "Measured value": 48}
{"Compound": "O=C(Nc1nc2cc(Cl)ccc2n1CCN1CCCC1)c1cc2cc(Cl)ccc2o1", "Uom": "µM", "Measured value": 12.5}
{"Compound": "O=C(Nc1nc2cc(Cl)c(Cl)cc2n1CCN1CCCC1)c1cc2cc(Cl)ccc2o1", "Uom": "µM", "Measured value": 50}
{"Compound": "Cc1ccc2c(c1)nc(NC(=O)c1cc3cc(Cl)ccc3o1)n2CCN1CCCC1", "Uom": "µM", "Measured value": 13}

Asked: Fill in the blank: the reported CC50 at 2 h of `O=C(Nc1nc2ccccc2n1CCN1CCCC1)c1cc2cc(Br)ccc2o1` is ____.
Given back: 7

---

system: HeLa Luc705 cells; experiment: Alamar Blue cytotoxicity assay; type: cell-based; conditions: ratio of cytotoxicity TC50 to luciferase induction EC50
Outcome measure: TC50/EC50
Give the value as a plain number.

{"Compound": "Cc1ccc2c(c1)nc(NC(=O)c1cc3cc(Cl)ccc3o1)n2CCN1CCCC1", "Outcome measure": "TC50/EC50", "Measured value": 3.7}
{"Compound": "O=C(Nc1nc2ccccc2n1CCN1CCCC1)c1cc2cc(Cl)ccc2o1", "Outcome measure": "TC50/EC50", "Measured value": 7.5}

Asked: Fill in the blank: the reported TC50/EC50 of `O=C(Nc1nc2ccccc2n1CCN1CCCC1)c1cc2cc(Br)ccc2o1` is ____.
Given back: 3.5

Asked: Fill in the blank: the reported TC50/EC50 of `O=C(Nc1nc2cc(Cl)ccc2n1CCN1CCCC1)c1cc2cc(Cl)ccc2o1` is ____.
Given back: 2.1

Asked: Fill in the blank: the reported TC50/EC50 of `COc1ccc2oc(C(=O)Nc3nc4ccccc4n3CCN3CCCC3)cc2c1` is ____.
Given back: 4.4

Asked: Fill in the blank: the reported TC50/EC50 of `O=C(Nc1nc2cc(Cl)c(Cl)cc2n1CCN1CCCC1)c1cc2cc(Cl)ccc2o1` is ____.
Given back: 5
